Record form. Attribute: pIC50. Fill in for each entry.
target: Bcr/Abl fusion protein (Homo sapiens); experiment: Inhibition of BCR/ABL (unknown origin) after 40 mins by ADP-Glo kinase assay; format: protein assay
Reminder that pIC50 means the negative base-10 logarithm of the concentration expressed in mol/L.

Task: State, in one line, measured pIC50 of "O=C(c1ccc(-c2cc(Nc3cccc(C(F)(F)F)c3)ncn2)cc1)N1CCN(C(=O)c2cccc(C(F)(F)F)c2)CC1"
Result: 6.25

Task: Tell us which pIC50 value is on record for "COc1cccc(Nc2cc(-c3ccc(C(=O)N4CCN(C(=O)c5cccc(C(F)(F)F)c5)CC4)cc3)ncn2)c1"
Result: 4.87

Task: Supply pIC50 value. Item: "COc1cccc(Nc2cc(-c3ccc(C(=O)N4CCN(C(=O)c5ccccc5F)CC4)cc3)ncn2)c1"
Result: 4.79

Task: Look up pIC50 of "O=C(c1ccc(-c2cc(Nc3ccc(Cl)cc3Cl)ncn2)cc1)N1CCN(C(=O)c2cccc(C(F)(F)F)c2)CC1" and report it.
Result: 3.58

Task: Look up and report measured pIC50 for this entry: "O=C(c1ccc(-c2cc(Nc3ccccc3Cl)ncn2)cc1)N1CCN(C(=O)c2ccccc2F)CC1"
Result: 3.85

Task: Supply measured pIC50 of "O=C(c1ccc(-c2cc(Nc3cccc(F)c3)ncn2)cc1)N1CCN(C(=O)c2ccccc2Cl)CC1" in your reply.
Result: 5.22

====

Exercise: for every item that follows, state its recorded pIC50.
target: Bcr/Abl fusion protein (Homo sapiens, UniProt P00519); test: Inhibition of BCR/ABL (unknown origin) after 40 mins by ADP-Glo kinase assay
Sequence (P00519 whole entry, the tested form may be a part): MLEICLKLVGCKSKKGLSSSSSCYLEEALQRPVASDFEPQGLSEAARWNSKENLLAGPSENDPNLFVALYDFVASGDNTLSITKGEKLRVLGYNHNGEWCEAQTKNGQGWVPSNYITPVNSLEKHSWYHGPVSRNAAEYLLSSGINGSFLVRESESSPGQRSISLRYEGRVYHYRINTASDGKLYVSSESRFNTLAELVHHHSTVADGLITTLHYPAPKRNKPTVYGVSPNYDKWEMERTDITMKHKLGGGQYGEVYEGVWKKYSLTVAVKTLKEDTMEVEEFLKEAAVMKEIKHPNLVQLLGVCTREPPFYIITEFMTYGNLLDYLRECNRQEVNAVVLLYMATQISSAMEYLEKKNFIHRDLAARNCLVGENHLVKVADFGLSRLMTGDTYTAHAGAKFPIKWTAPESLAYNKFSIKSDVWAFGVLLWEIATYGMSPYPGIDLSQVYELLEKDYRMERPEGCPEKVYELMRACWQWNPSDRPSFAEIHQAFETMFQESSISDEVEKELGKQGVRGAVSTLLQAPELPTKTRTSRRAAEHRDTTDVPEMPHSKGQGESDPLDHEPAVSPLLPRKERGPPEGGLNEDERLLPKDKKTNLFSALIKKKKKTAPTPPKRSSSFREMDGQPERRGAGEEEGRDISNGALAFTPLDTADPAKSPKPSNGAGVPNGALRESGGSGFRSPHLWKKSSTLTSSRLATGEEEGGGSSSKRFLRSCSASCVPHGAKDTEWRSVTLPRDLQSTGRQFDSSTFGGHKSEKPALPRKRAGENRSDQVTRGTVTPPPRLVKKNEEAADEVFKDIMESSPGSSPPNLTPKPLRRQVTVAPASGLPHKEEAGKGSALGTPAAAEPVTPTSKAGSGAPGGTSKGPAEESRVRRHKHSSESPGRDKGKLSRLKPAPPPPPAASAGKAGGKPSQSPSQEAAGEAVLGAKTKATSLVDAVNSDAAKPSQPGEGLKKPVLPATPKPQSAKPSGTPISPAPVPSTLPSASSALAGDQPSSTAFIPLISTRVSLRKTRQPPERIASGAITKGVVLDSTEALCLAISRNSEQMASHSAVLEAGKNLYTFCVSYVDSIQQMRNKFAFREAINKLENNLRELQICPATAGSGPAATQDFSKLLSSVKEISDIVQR
Sequence (P11274 whole entry, further chain, the tested form may be a part): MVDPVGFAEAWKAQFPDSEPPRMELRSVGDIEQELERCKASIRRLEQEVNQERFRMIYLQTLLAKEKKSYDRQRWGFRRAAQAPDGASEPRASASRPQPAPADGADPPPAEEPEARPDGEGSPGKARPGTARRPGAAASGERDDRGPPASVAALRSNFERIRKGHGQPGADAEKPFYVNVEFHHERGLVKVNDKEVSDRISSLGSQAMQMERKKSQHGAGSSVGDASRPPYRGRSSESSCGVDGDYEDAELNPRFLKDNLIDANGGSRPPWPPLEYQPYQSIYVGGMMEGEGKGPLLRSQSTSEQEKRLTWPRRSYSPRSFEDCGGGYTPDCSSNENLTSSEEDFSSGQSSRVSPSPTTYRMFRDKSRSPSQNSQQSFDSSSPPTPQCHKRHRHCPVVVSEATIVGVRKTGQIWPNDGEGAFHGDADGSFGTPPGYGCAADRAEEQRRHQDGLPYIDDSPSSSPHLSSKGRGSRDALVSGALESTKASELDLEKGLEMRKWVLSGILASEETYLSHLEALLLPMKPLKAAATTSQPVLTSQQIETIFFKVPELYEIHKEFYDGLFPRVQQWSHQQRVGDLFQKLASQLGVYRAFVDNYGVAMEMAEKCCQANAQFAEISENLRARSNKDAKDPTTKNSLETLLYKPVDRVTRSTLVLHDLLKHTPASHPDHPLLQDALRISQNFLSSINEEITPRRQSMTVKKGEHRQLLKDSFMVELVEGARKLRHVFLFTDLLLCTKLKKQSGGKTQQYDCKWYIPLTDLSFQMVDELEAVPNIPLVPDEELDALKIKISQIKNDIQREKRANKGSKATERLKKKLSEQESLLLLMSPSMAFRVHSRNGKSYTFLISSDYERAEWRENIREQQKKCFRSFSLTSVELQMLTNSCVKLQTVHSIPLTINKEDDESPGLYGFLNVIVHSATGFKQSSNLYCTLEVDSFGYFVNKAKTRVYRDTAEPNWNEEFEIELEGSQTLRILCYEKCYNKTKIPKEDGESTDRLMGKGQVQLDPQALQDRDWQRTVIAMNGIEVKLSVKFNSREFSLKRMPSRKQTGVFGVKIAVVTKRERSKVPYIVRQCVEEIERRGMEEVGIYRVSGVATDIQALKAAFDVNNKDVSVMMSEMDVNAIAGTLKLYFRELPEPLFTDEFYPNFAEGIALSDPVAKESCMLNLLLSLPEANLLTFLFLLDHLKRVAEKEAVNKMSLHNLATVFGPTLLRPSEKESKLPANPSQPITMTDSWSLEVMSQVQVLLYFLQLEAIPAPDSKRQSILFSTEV
Kindly note that pIC50 refers to -log10 of the concentration in mol/L and answer with the value alone.

Task: Identify the reported pIC50 for the following entry. "O=C(c1ccc(-c2cc(Nc3ccc(C(F)(F)F)cc3)ncn2)cc1)N1CCN(C(=O)c2ccccc2F)CC1"
Result: 4.10

Task: Supply recorded pIC50 for "O=C(c1ccc(-c2cc(Nc3cccc(C(F)(F)F)c3)ncn2)cc1)N1CCN(C(=O)c2ccccc2F)CC1" here.
Result: 6.06

====

molecular target: Bcr/Abl fusion protein (Homo sapiens); experiment: Inhibition of BCR/ABL (unknown origin) after 40 mins by ADP-Glo kinase assay
Assay Metric: IC50 (nM)
Numbers only; they are read as nM.

Task: Note down IC50 recorded for "O=C(c1ccc(-c2cc(Nc3ccccc3F)ncn2)cc1)N1CCN(C(=O)c2ccccc2F)CC1"
Result: 50

Task: Answer with reported IC50 of "O=C(c1ccc(-c2cc(Nc3cc(C(F)(F)F)cc(C(F)(F)F)c3)ncn2)cc1)N1CCN(C(=O)c2ccccc2F)CC1"
Result: 130

====

biological target: Bcr/Abl fusion protein (Homo sapiens); test: Inhibition of BCR/ABL (unknown origin) after 40 mins by ADP-Glo kinase assay; format: protein assay
Labelling field: enter Met if recorded IC50 is less than 1 µM. Enter Not met if it equals or exceeds that cut-off.

Task: Decide: IC50 of "Cc1ccc(Nc2cc(-c3ccc(C(=O)N4CCN(C(=O)c5ccccc5F)CC4)cc3)ncn2)cc1Cl" strictly below 1 µM?
Result: Not met

Task: Does this molecule meet the criterion IC50 < 1 µM? "O=C(c1ccc(-c2cc(Nc3ccccc3Cl)ncn2)cc1)N1CCN(C(=O)c2ccccc2Cl)CC1"
Result: Met

Task: Here's an entry: "O=C(c1ccc(-c2cc(Nc3ccc(F)cc3)ncn2)cc1)N1CCN(C(=O)c2cccc(C(F)(F)F)c2)CC1" . Is its IC50 below 1 µM?
Result: Not met

Task: Please let me know if "CC(C)(C)c1ccc(Nc2cc(-c3ccc(C(=O)N4CCN(C(=O)c5ccccc5F)CC4)cc3)ncn2)cc1" shows IC50 below 1 µM.
Result: Not met

Task: Does "CC(=O)c1cccc(Nc2cc(-c3ccc(C(=O)N4CCN(C(=O)c5ccccc5F)CC4)cc3)ncn2)c1" have IC50 strictly under 1 µM?
Result: Met

Task: Item "O=C(c1ccc(-c2cc(Nc3cccc(Cl)c3)ncn2)cc1)N1CCN(C(=O)c2ccccc2F)CC1" : IC50 beneath 1 µM, strictly?
Result: Not met

Task: I wonder whether "O=C(c1ccc(-c2cc(Nc3ccc(F)cc3)ncn2)cc1)N1CCN(C(=O)c2ccccc2F)CC1" has IC50 below 1 µM. Can you tell?
Result: Not met

Task: Threshold test, IC50 < 1 µM: "O=C(c1ccc(-c2cc(Nc3cccc(F)c3)ncn2)cc1)N1CCN(C(=O)c2ccccc2F)CC1"
Result: Met
